Tested on: M14
Assay: NCI tumour cell line growth inhibition, 48 h
Active and inactive are the calls of the source. No stated cut-off is given here; in the data, active = GI50 up to about 1.1 µM and inactive = higher.
Measurement Kind: GI50

O=C(CCC(NC(=O)OCc1ccccc1)C(=O)OCc1ccccc1)Nc1ccc(OCc2ccccc2)cc1 (stereo not given) | > 75.7 µM (inactive)

Q. Please state recorded GI50 (tested on M14) of Fc1ccc2nc3n(c2c1)C(c1c(F)cccc1F)SC3 (stereo not given)
A. 49.1 µM (inactive)

Q. Please state recorded GI50 (tested on M14) of CCOC(=O)C1=C(C)N(c2ccc(Cl)cc2)C2(O)C=CC(O)=C3C(=O)c4ccccc4C(=O)C312 (stereo not given)
A. 2.63 µM (inactive)

Q. Please state recorded GI50 (tested on M14) of `CSc1ccc2c(cc1=O)[C@@H](NC(=O)c1ccc(Cl)cc1)CCc1cc(O)c(O)c(O)c1-2`
A. 34.7 µM (inactive)

Q. Please state recorded GI50 (tested on M14) of O=C(c1ccccc1)c1ccc2cccc(OC3OC(CO)C(O)C(O)C3O)c2n1 (stereo not given)
A. > 100 µM (inactive)

Q. Please state recorded GI50 (tested on M14) of CC(C)N(C(=O)C12C3C4C1C1C4(C#N)C3C12C#N)C(C)C (stereo not given)
A. > 100 µM (inactive)

Q. Please state recorded GI50 (tested on M14) of `COc1cc(S(=O)(=O)Nc2nc(-c3ccc(N4C(=O)/C(=C/c5ccccc5)N=C4c4ccccc4)cc3)cs2)ccc1Cl`
A. 56.4 µM (inactive)

Q. Please state recorded GI50 (tested on M14) of `Cc1c(C)n(COCCO)c2ncnc(N)c12`
A. > 100 µM (inactive)

Q. Please state recorded GI50 (tested on M14) of `COC1=C(OC)C(=O)C(C/C=C/c2c(Cl)nc3sccn23)=C(C)C1=O`
A. 16.2 µM (inactive)

Q. Please state recorded GI50 (tested on M14) of `CC(=O)O[C@H]1CC[C@H]2[C@@H]3CCc4cc(O)c(I)cc4[C@H]3CC[C@]12C`
A. 13.6 µM (inactive)

Q. Please state recorded GI50 (tested on M14) of `CNC(=O)N(CCC#N)CCCN(C(=O)NC)c1ccccc1`
A. > 100 µM (inactive)

Q. Please state recorded GI50 (tested on M14) of `CCCCCCN(CCCCCC)C1=CC(=O)C(=O)c2ccccc21`
A. 18.3 µM (inactive)

Q. Please state recorded GI50 (tested on M14) of NC1=NN(c2ccccc2)C(=O)C1C(=O)C(=O)Nc1ccc(Cl)c(Cl)c1 (stereo not given)
A. > 100 µM (inactive)
